Values from patent US20260242735A1

- target desc: human CD33 variant I47R (human, UniProt P20138 18-364)
- Sequence (P20138 18-364 I47R limits assumed): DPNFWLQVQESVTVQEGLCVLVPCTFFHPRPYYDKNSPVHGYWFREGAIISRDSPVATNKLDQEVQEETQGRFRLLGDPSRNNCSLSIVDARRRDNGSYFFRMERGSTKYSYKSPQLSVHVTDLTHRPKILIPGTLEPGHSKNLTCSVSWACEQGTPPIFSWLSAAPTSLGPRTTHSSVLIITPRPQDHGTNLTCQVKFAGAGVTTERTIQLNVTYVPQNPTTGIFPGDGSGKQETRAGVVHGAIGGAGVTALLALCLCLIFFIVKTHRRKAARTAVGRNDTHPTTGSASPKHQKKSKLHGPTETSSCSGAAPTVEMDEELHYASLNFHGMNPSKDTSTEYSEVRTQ
- assay text: flow cytometry, IgG on cells expressing the mutant
reported endpoint: Mean % WT Binding

Q) Note Mean % WT Binding for the binder shown: Refmab #4 (antibody, human IgG1, V domains shown, Tested in IgG format; human IgG1 Fc silent (PG-LALA)) VH: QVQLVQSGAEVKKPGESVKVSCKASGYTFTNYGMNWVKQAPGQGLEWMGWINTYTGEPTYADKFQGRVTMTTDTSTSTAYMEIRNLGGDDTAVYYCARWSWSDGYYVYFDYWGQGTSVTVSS VL: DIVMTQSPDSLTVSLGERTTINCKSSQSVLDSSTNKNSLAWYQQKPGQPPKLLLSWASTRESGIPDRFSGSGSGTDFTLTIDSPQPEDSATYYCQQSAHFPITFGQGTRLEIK
A) 66.2 % of WT

Q) Note down Mean % WT Binding recorded for Refmab #1 (antibody, human IgG1, V domains shown, Tested in IgG format; human IgG1 (Absolute Antibody hP67.6, Cat. No. Ab00283-10.0); also called hP67.6) VH: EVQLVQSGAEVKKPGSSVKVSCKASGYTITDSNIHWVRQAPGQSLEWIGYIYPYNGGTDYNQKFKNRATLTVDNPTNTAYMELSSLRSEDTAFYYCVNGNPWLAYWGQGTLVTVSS VL: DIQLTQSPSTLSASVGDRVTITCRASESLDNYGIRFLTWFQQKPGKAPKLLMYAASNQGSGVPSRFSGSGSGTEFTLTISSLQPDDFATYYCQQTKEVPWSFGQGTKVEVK
A) 96.1 % of WT

Q) Given Refmab #3 (antibody, human IgG1, V domains shown, Tested in IgG format; human IgG1 Fc silent (PG-LALA)) VH: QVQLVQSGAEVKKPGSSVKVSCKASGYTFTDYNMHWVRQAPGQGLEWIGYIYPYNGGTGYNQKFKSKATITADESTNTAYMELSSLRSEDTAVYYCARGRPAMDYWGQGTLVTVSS VL: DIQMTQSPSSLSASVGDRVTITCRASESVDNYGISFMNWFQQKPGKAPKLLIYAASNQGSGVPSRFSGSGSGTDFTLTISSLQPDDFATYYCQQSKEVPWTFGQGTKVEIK , respond with its Mean % WT Binding.
A) 83.2 % of WT

Q) Output measured Mean % WT Binding for this item: Refmab #2 (antibody, human IgG1, V domains shown, Tested in IgG format; human IgG1 Fc silent (PG-LALA)) VH: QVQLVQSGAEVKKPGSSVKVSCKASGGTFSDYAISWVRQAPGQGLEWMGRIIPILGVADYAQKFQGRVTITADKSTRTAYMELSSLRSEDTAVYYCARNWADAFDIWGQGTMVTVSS VL: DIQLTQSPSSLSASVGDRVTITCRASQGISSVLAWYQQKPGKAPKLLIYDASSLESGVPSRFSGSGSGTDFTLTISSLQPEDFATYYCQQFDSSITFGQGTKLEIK
A) 1.6 % of WT
